test system: wheat; assay: Test C preemergence; format: in vivo, Triticum aestivum; details: preemergence, 250 g ai/ha; scale 0 to 100, 0 is no effect, 100 is complete control
readout_type: Wheat plant response rating
Quick one: just the number, no unit, thanks!

[
  {
    "compound": "CCc1cc(C(=O)NCC(F)(F)F)nn1Cc1ccnc(Br)c1 [Compound 224]",
    "readout_type": "Wheat plant response rating",
    "observed_result": 60
  },
  {
    "compound": "CCCc1cc(C(=O)NC(C)C)nn1Cc1cc(C(F)(F)F)nn1C [Compound 201]",
    "readout_type": "Wheat plant response rating",
    "observed_result": 90
  },
  {
    "compound": "CCCc1cc(C(=O)NC2CC2)nn1Cc1cc(C(F)(F)F)nn1C [Compound 202]",
    "readout_type": "Wheat plant response rating",
    "observed_result": 90
  },
  {
    "compound": "CCNC(=O)c1cc(CC)n(Cc2cc(C(F)(F)F)nn2C)n1 [Compound 154]",
    "readout_type": "Wheat plant response rating",
    "observed_result": 90
  },
  {
    "compound": "CCc1cc(C(=O)NCC(F)(F)F)nn1Cc1ccnc(SC(F)(F)F)c1 [Compound 214]",
    "readout_type": "Wheat plant response rating",
    "observed_result": 40
  }
]

// query State its Wheat plant response rating for this compound: CCCNC(=O)c1cc(OCC)n(Cc2ccnc(OC(F)F)c2)n1 [Compound 136]
// result 95

* * *

tested on: barley, spring; experiment: Test D postemergence; assay type: in vivo, Hordeum vulgare; settings: Postemergence, 31 g ai/ha, scale 0 to 100
readout_type: Barley, Spring plant response rating
Quick one: just the number, no unit, thanks!

[
  {
    "smiles_data": "CCc1cc(C(=O)NC2CC2)nn1Cc1ccnc(C(F)(F)F)c1",
    "Barley, Spring plant response rating": 0
  }
]

// query State its Barley, Spring plant response rating for this molecule: CCc1cc(C(=O)NOC(C)C)nn1Cc1cccc(OC(F)(F)F)c1
// result 0

// query State its Barley, Spring plant response rating for this molecule: CCc1cc(C(=O)NCC(F)(F)F)nn1Cc1ccnc(SC(F)(F)F)c1
// result 15

// query State its Barley, Spring plant response rating for this molecule: O=C(NC1CC1)c1cc(CCF)n(Cc2ccnc(C(F)(F)F)c2)n1
// result 10

* * *

Reported Plant response rating, Morningglory by item:
system: morningglory; test: Test C postemergence; type: in vivo, Ipomoea coccinea; settings: postemergence, 250 g ai/ha; scale 0 to 100 (0 no effect, 100 complete control)
Quick one: just the number, no unit, thanks!

[
  {
    "smiles_data": "CCCNC(=O)c1cc(CCF)n(Cc2ccnc(C(F)(F)F)c2)n1",
    "observed_result": 80
  }
]

Now look at this one.
// query State its Plant response rating, Morningglory for this molecule: O=C(NC1CC1)c1cc(CCCl)n(Cc2ccnc(C(F)(F)F)c2)n1
// result 98

* * *

tested on: nutsedge, yellow; test: Test C postemergence; assay type: in vivo, Cyperus esculentus; details: postemergence, 62 g ai/ha; scale 0 to 100
Reported Nutsedge, Yellow plant response rating by item:

Examples with their reported Nutsedge, Yellow plant response rating follow.
[
  {
    "smiles_data": "CCCNC(=O)c1cc(CC)n(Cc2ccnc(C(F)(F)F)c2)n1",
    "observed_result": 5
  },
  {
    "smiles_data": "CCc1cc(C(=O)NOC(C)C)nn1Cc1ccnc(OC(F)F)c1",
    "observed_result": 5
  },
  {
    "smiles_data": "CCNC(=O)c1cc(CC)n(Cc2cc(C(F)(F)F)nn2C)n1",
    "observed_result": 0
  }
]

Now look at this one.
// query State its Nutsedge, Yellow plant response rating for this molecule: CCc1cc(C(=O)NCC(F)(F)F)nn1Cc1nc(C(F)(F)F)nn1C
// result 0

* * *

test system: crabgrass, large; assay: Test C postemergence; format: in vivo, Digitaria sanguinalis; details: postemergence; 125 g ai/ha; scale 0 to 100, 0 no effect, 100 complete control
readout_type: Plant response rating, Crabgrass, Large
Quick one: just the number, no unit, thanks!

Examples with their reported Plant response rating, Crabgrass, Large follow.
[
  {
    "smiles_data": "CCCNC(=O)c1cc(CC)n(Cc2nc(C(F)(F)F)nn2C)n1",
    "readout_type": "Plant response rating, Crabgrass, Large",
    "observed_result": 10
  },
  {
    "smiles_data": "CCc1cc(C(=O)NC2CC2)nn1Cc1ccnc(C(F)(F)F)c1",
    "readout_type": "Plant response rating, Crabgrass, Large",
    "observed_result": 70
  },
  {
    "smiles_data": "Cc1cc(C(=O)NCC(F)(F)F)nn1Cc1ccnc(C(F)(F)F)c1",
    "readout_type": "Plant response rating, Crabgrass, Large",
    "observed_result": 30
  },
  {
    "smiles_data": "CCCc1cc(C(=O)NC(C)C)nn1Cc1ccnc(C(F)(F)F)c1",
    "readout_type": "Plant response rating, Crabgrass, Large",
    "observed_result": 20
  }
]

// query State its Plant response rating, Crabgrass, Large for this compound: CCCNC(=O)c1cc(OCC)n(Cc2ccnc(C(F)(F)F)c2)n1
// result 60

// query State its Plant response rating, Crabgrass, Large for this compound: CCc1cc(C(=O)NC2CC2)nn1Cc1ccnc(Br)c1
// result 5

// query State its Plant response rating, Crabgrass, Large for this compound: CCONC(=O)c1cc(CC)n(Cc2ccnc(OC(F)F)c2)n1
// result 15

* * *

system: windgrass; experiment: Test D preemergence; format: in vivo, Apera spica-venti; details: Preemergence, 62 g ai/ha; scale 0 to 100
readout_type: Plant response rating, Windgrass

Examples with their reported Plant response rating, Windgrass follow.
[
  {
    "smiles_data": "CCc1cc(C(=O)NCC(F)(F)F)nn1Cc1ccnc(SC(F)(F)F)c1",
    "Plant response rating, Windgrass": 85
  },
  {
    "smiles_data": "CCCc1cc(C(=O)NC(C)C)nn1Cc1cc(C(F)(F)F)nn1C",
    "Plant response rating, Windgrass": 100
  },
  {
    "smiles_data": "O=C(NC1CC1)c1cc(CCF)n(Cc2ccnc(C(F)(F)F)c2)n1",
    "Plant response rating, Windgrass": 10
  }
]

Now look at this one.
// query State its Plant response rating, Windgrass for this compound: CCc1cc(C(=O)NC2CC2)nn1Cc1ccnc(C(F)(F)F)c1
// result 65

* * *

tested on: pigweed; experiment: Test A postemergence; type: in vivo, Amaranthus retroflexus; conditions: Postemergence, 500 g ai/ha; 0 to 100 scale (0 no effect, 100 complete control)
Reported Pigweed plant response rating by item:
Quick one: just the number, no unit, thanks!

[
  {
    "compound": "O=C(NC1CC1)c1cc(CCCl)n(Cc2ccnc(C(F)(F)F)c2)n1 [Compound 144]",
    "observed_result": 100
  },
  {
    "compound": "CCNC(=O)c1cc(CC)n(Cc2cc(C(F)(F)F)nn2C)n1 [Compound 154]",
    "observed_result": 100
  },
  {
    "compound": "CCOc1cc(C(=O)NCC(F)(F)F)nn1Cc1cc(C(F)(F)F)nn1C [Compound 140]",
    "observed_result": 100
  }
]

// query Report its Pigweed plant response rating with pigweed as the test system: CCCNC(=O)c1cc(CC)n(Oc2cccc(C(F)(F)F)c2)n1 [Compound 216]
// result 30

// query Report its Pigweed plant response rating with pigweed as the test system: O=C(NC1CC1)c1cc(I)n(Cc2cccc(C(F)(F)F)c2)n1 [Compound 180]
// result 100

// query Report its Pigweed plant response rating with pigweed as the test system: O=C(NCC(F)(F)F)c1cc(Cl)n(Cc2cccc(C(F)(F)F)c2)n1 [Compound 170]
// result 80

// query Report its Pigweed plant response rating with pigweed as the test system: O=C(NC1CC1)c1cc(CCF)n(Cc2ccnc(C(F)(F)F)c2)n1 [Compound 176]
// result 100

// query Report its Pigweed plant response rating with pigweed as the test system: CCCCNC(=O)c1cc(I)n(Cc2cccc(C(F)(F)F)c2)n1 [Compound 182]
// result 90

// query Report its Pigweed plant response rating with pigweed as the test system: CCCc1cc(C(=O)NOC(C)C)nn1Cc1cc(C(F)(F)F)nn1C [Compound 203]
// result 100

// query Report its Pigweed plant response rating with pigweed as the test system: COCc1cc(C(=O)NC(C)C)nn1Cc1ccnc(C(F)(F)F)c1 [Compound 166]
// result 100

// query Report its Pigweed plant response rating with pigweed as the test system: CCCc1cc(C(=O)NC2CC2)nn1Cc1cc(C(F)(F)F)nn1C [Compound 202]
// result 100

// query Report its Pigweed plant response rating with pigweed as the test system: O=C(NCC(F)(F)F)c1cc(Br)n(Cc2cccc(C(F)(F)F)c2)n1 [Compound 161]
// result 70

// query Report its Pigweed plant response rating with pigweed as the test system: CCONC(=O)c1cc(CC)n(Cc2ccnc(OC(F)F)c2)n1 [Compound 131]
// result 100

// query Report its Pigweed plant response rating with pigweed as the test system: CCc1cc(C(=O)NC2CC2)nn1Cc1cc(C(F)(F)F)no1 [Compound 124]
// result 100
